Numbers sourced from patent US20170066759A1.

Recorded measurements of pIC50, one per entry
target: human TRPV4 (hTRPV4/CHO cells) (Homo sapiens)
Construct: expressed in transfected cells; host or cells: CHO-K1
Sequence (Q9HBA0 whole entry): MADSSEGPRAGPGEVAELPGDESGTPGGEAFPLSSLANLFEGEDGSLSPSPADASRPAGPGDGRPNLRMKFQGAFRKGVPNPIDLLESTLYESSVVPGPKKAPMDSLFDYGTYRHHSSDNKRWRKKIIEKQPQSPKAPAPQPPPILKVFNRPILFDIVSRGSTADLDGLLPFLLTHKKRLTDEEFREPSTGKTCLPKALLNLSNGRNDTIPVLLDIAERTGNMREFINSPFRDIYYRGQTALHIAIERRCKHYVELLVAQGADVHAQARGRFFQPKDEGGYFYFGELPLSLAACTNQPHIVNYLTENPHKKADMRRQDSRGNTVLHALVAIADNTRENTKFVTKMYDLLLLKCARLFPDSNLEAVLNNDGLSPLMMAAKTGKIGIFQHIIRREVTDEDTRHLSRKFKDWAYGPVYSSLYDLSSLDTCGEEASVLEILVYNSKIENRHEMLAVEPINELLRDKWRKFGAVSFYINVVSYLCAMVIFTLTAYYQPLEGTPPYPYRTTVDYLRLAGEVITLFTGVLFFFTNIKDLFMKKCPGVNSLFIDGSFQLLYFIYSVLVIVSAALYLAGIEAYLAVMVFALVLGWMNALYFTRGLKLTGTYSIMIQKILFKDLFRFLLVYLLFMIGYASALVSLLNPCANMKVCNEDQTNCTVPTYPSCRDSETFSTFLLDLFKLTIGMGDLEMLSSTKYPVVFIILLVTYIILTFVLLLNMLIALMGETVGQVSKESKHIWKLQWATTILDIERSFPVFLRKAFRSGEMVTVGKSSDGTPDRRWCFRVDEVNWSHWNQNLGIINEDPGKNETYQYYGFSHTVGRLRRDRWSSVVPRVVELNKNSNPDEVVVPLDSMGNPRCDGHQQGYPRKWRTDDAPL
protocol.notes: Test Example 1: TRPV4 inhibitory activity (IC50 value), 4α-PDD stimulation, Fluo4 calcium fluorescence (FLIPR TETRA)
Type: cell-based
condition.label: Test Example 1, 4α-PDD stimulation, read-out: Test 1 IC50
pIC50: −log10 of the molar value.

In the examples that follow, each entry is paired with its recorded pIC50.
>>> test_result("Cc1nc(C)c(-c2csc(NC(=O)Cc3ccc(S(=O)(=O)N4CCOCC4)cc3)n2)s1")
"6.00 to 7.00"
>>> test_result("CC(O)c1nc(CO)c(-c2csc(NC(=O)Cc3ccc(S(=O)(=O)C(F)(F)F)cc3)n2)s1 (racemic)")
"6.00 to 7.00"
>>> test_result("Cc1nc(C)c(-c2nc(NC(=O)Cc3c(F)cccc3F)sc2-c2ccccc2Cl)s1")
"5.10 to 6.00"

// lookup pIC50 for `Cc1ccc(-c2csc(NC(=O)Cc3ccc(S(=O)(=O)CC(F)(F)F)cc3)n2)s1` 6.00 to 7.00

// lookup pIC50 for `Cc1nc(C)c(-c2csc(NC(=O)Cc3cccc(NS(=O)(=O)c4ccccc4)c3)n2)s1` > 7.00

// lookup pIC50 for `Cc1nc(CO)sc1-c1csc(NC(=O)C2Oc3cc(Cl)c(Cl)cc3O2)n1` > 7.00

// lookup pIC50 for `Cc1nc(C)c(-c2csc(NC(=O)C3CCN(c4ncc(C(F)(F)F)cn4)CC3)n2)s1` > 7.00

// lookup pIC50 for `Cc1nc(C)c(-c2csc(NC(=O)Cc3ccc(S(=O)(=O)CC(F)(F)F)cc3)n2)s1` > 7.00
